Here the recorded pIC50 is given for each entry.
- tested-on: recombinant human GAA (acid alpha-glucosidase) (Homo sapiens)
- test-description: Acid alpha-glucosidase (GAA) assay (4-methylumbelliferyl-alpha-D-pyranoside substrate, fluorescence)
pIC50 here is simply -log10 of the concentration when that concentration is written in mol/L.

Reference set (4 entries):
                        structure_as_smiles  measurement_type  endpoint_value
0  CS(=O)(=O)c1cc(Br)cc(NCc2cccc(CN3C[C@H](O)[C@@H](O)[C@H](O)[C@H]3CO)c2)c1             pIC50            6.10
1  CCCc1nc(-c2cc(Cl)cc(NCCc3ccc(CCN4C[C@H](O)[C@@H](O)[C@H](O)[C@H]4CO)cc3)c2)no1             pIC50            6.15
2  Nc1ccc(NCCc2ccccc2CCN2C[C@H](O)[C@@H](O)[C@H](O)[C@H]2CO)c([N+](=O)[O-])c1Cl             pIC50            5.91
3  [N-]=[N+]=Nc1ccc(NCCc2ccc(CCN3C[C@H](O)[C@@H](O)[C@H](O)[C@H]3CO)cc2)c([N+](=O)[O-])c1             pIC50            5.94

Next:
Query :: // map `[N-]=[N+]=Nc1ccc(NCCNc2cc(Cl)cc(CCN3C[C@H](O)[C@@H](O)[C@H](O)[C@H]3CO)c2)c([N+](=O)[O-])c1` to recorded pIC50 (system: recombinant human GAA (acid alpha-glucosidase) (Homo sapiens))
Result :: 6.10
